Test system: UACC-257 melanoma
Test: NCI-60 one-dose screen, 48 h
Conditions: 10 µM
Procedure: Cells are grown in 96 well plates and exposed to the test compound for 48 hours. Compounds are tested at a single concentration, which is 10^-5 M for most compounds. The reported endpoint is percent growth (GI% or GIPRCNT), where numbers from 0 - 100% represent growth inhibition, and numbers from -100% - 0 represent cell death. For example, a value of 40 represents 60% growth inhibition. A value of 0 means no net growth occurred over the course of the experiment. […]
Compounds without any hit were thinned out: in the full panel of roughly 83,000, 20% have a hit. Activity calls are given as the source filed them. How the source made its calls: active means growth percent below 10; inactive means the rest.
Classes used: active, inactive

Compound	Label Class
COc1cnc2c(c1)C(=O)c1c-2n(CCCNC(C)C)c(=O)c2cc(OC)c(OC)cc12	inactive
O=c1[nH]c2ccccc2cc1CSc1ccc(Nc2nccc(-c3ccc(C(F)(F)F)cc3)n2)cc1	inactive
O=C(Nc1ccc(OCC(=O)c2ccccc2)cc1)Nc1ccc(Cl)c(C(F)(F)F)c1	active
O=C(Cn1cc(CSc2nnc3oc4ccccc4n23)nn1)Nc1ccc(Br)cc1	inactive
O=C(CNc1nc(-c2ccccc2)cs1)Nc1cccc(Cl)c1	inactive
Cc1cccc2cc(-c3cc(-c4ccccc4)nc(=S)[nH]3)c(Cl)nc12	inactive
COc1ccc2nc(Cl)c(-c3cc(-c4ccccc4)nc(N)n3)cc2c1	inactive
CC(=O)NS(=O)(=O)c1ccc(NC(=O)CSC2=NC(c3ccccc3)C(C(C)=O)=C(C)N2)cc1 (centres undefined)	inactive
C=CC(=O)Nc1ccc(C(=O)/C=C/c2ccc(N(C)CCF)cc2)c(O)c1	active
Cc1ccc(C(=O)NCCCNc2nc(Nc3ccc(N4CCN(C)CC4)cc3)nc3ccsc23)cc1	active
CN1CCN(c2ccc(C(=O)/C=C/c3ccc(OC(F)F)cc3)cc2)CC1	inactive
Cn1cc(/C=N/Nc2ccnc3cc(Cl)ccc23)c2ccccc21	active
CC(C)NC(=O)c1cc(-c2ccc(NC(=O)Nc3ccc(N4CCN(C)CC4)c(C(F)(F)F)c3)cc2)nc2cccnc12	active
Cc1cc(C)cc(Oc2cccc(-c3c(C)nnn3C3CCN(CCN(C)C)CC3)n2)c1	active
COc1ccc(/C(CSc2nnc(-c3c[nH]c4ccccc34)n2-c2ccccc2)=N/O)cc1	inactive
CCCn1c(=O)c2[nH]c(-c3ccc(OCc4nc5ccc(C#N)cc5[nH]4)cc3)nc2n(CCC)c1=O	inactive
CC1(C)CC[C@]2(C(=O)Nc3ccccc3)CC[C@]3(C)C(=CC[C@@H]4[C@@]5(C)CC[C@H](N)C(C)(C)[C@@H]5CC[C@]43C)[C@H]2C1	inactive
COc1cccc(COc2ccc(/C=C3\Oc4cc(O)ccc4C3=O)cc2)c1	inactive
Cc1ccc(/C=C/C(=O)c2ccc(S(=O)(=O)NCCNc3nc(Nc4ccc(F)cc4)nc(N(C)C)n3)cc2)cc1	inactive
